// values below are reported kdis
# System: recombinant HCMV pentamer (strain VR1814) consisting of gH, gL, UL128, UL130 and UL131A
# Assay text: Biolayer interferometry (Octet RED) KD determination
# Assay type: binding, Human cytomegalovirus
# Test context: dissociation 3 minutes in PBS
Note: unit s⁻¹ is implicit; provide only the numeric part.

>  <Molecule>
9A12: anti-HCMV gH/gL monoclonal antibody, fusion 2; VH SEQ ID NO:59, VL SEQ ID NO:60; chimeric and fully human IgG1 versions (antibody, V domains shown, IgG1 constant regions, anti-HCMV gH/gL monoclonal antibody, fusion 2; chimeric and fully human IgG1 versions) VH: EVQLVESGGVLVQPGGSLRLSCAASGFTFSSHEMNWVRQAPGKGLEWISYISSTGSTIYDADSVKGRFTISRDNAKNSLYLQMNSLRAEDTAVYYCARSSGWYRNYSYGMDVWGQGTTVTVSS VL: DIQMAQSPSSLSASVGDRVTITCRASQGIYNYLAWFQQKPGKAPKSLIYAASSLQTGVPSKFSGSGSGTDFTLTISNLQPEDFATYYCQQYNSFPRTFGQGTKVEIK

>  <kdis (s⁻¹)>
8.6e-05

$$$$

Query :: Can you share its kdis? I mean this molecule: 15G11: anti-HCMV gH/gL monoclonal antibody, fusion 1; VH SEQ ID NO:52, VL SEQ ID NO:53; chimeric and fully human IgG1 versions (antibody, V domains shown, IgG1 constant regions, anti-HCMV gH/gL monoclonal antibody, fusion 1; chimeric and fully human IgG1 versions) VH: QVQLQESGPGLVKPSQTLSLTCTVSGGSISSGYYYWNWIRQHPGKGLECIGYIYYSGTTYYNPSLKSRLFISVDTSKNQFSLKLRSVTAADTAVYYCARGGLGAFDIWGQGTMVTVSS VL: EIVLTQSPGTLSLSPGERATLSCRASQSVSSSYLAWYQQKPGQAPRLLIYGASSRAPGIPDRFSGTGSGTDFTLTISRLEPEDFAVYYCQQYGISPLTFGGGTKVEIK
Result :: 8.69e-05
